Just for reference, patent US7893266B2 is where these values come from.

System: EMT-6 mammary tumors
ASSAY TEXT: Biodistribution in EMT-6 BALB/C mice
Format: in vivo
CONDITION DESCRIPTION: lung, 30 min
ENDPOINT NAME: % ID per gram lung (% ID per gram)

COMPOUND	STUDY SYSTEM	VALUE
COc1cc2c(cc1OC)CN(CCNC(=O)c1cc(C)ccc1O[11CH3])CC2 [[^11C]9]	EMT-6 mammary tumors	1.42
COc1cc2c(cc1OC)CN(CCCCNC(=O)c1cc([76Br])cc(OC)c1OC)CC2 [[^76Br]6]	EMT-6 mammary tumors	5.81
COc1cc2c(cc1OC)CN(CCCCNC(=O)c1cc([125I])cc(OC)c1OC)CC2 [[^125I]6i]	EMT-6 mammary tumors	5.50
COc1cc2c(cc1OC)CN(CCNC(=O)c1cc([125I])ccc1OC)CC2 [[^125I]8i]	EMT-6 mammary tumors	1.39
COc1cc2c(cc1OC)CN(CCCCNC(=O)c1cc(Br)cc(OC)c1O[11CH3])CC2 [[^11C]6]	EMT-6 mammary tumors	1.34
COc1cc2c(cc1OC)CN(CCCCNC(=O)c1cc(C)cc(OC)c1O[11CH3])CC2 [[^11C]10]	EMT-6 mammary tumors	2.27
